pIC50: −log10 of the molar value.
Hi, quick share: literature pIC50 data for MAGL (Homo sapiens, UniProt Q99685), several sources combined.
Quick rule: pIC50 of at least 7 means Yes, below that means No.

Some solved entries appear below for comparison.
O=C1CC(O)[C@H]2CCN(C(=O)N3CC(OCc4ccc(C(F)(F)F)cc4F)C3)C[C@H]2N1 (mixture of isomers)
No
O=C1N[C@H](CCC(=O)N2CC(c3ccc(C4(C(F)(F)F)CC4)nc3)C2)CO1
No
O=C(c1ccc2c(c1)[nH]c(=O)n2CC(F)(F)F)N1CC(N2CCN(C(=O)c3nccs3)CC2)C1
No
O=C1CO[C@H]2CCN(C(=O)N3C[C@@H]4[C@@H](COc5ccc(C(F)(F)F)cc5F)[C@@H]4C3)C[C@H]2N1
Yes
O=C(c1ccc(-n2ccc(C(F)(F)F)n2)cc1)N1CC(N2CCN(C(=O)c3cscn3)CC2)C1
No

Input line: Does COc1cccc(C(=O)N2CCN3CC(O)(c4ccc(C(F)(F)F)nc4)CCC3C2)c1Cl (racemic) have a reported pIC50 of at least 7?
Output line: No

Input line: Does CC(=O)Nc1ccn(C(=O)N2CCN(Cc3ccc(C(F)(F)F)cc3N3CCN4CCC[C@H]4C3)CC2)n1 have a reported pIC50 of at least 7?
Output line: Yes

Input line: Does Cc1cn(-c2ccccc2)c2ccc(C(=O)N3CC(N4CCN(C(=O)c5cscn5)CC4)C3)cc12 have a reported pIC50 of at least 7?
Output line: Yes

====

Hi, quick share: literature log10 IC50 data for MAGL (Homo sapiens, UniProt Q99685), several sources combined.
Hello, just confirming the data are log10 of IC50 with units of nM.

CS(=O)(=O)Nc1cccc(-c2ccc(C(=O)N3CC(N4CCN(C(=O)c5nccs5)CC4)C3)cc2)c1
1.51
CC1(n2cc(-c3ccc(C(=O)N4CCN(c5nc6nc(Cl)ccc6o5)CC4)cc3)nn2)COC1
2.93
Cc1ccc2oc(N3CCN(C(=O)c4ccc(-c5ncn(C(C)(C)C)n5)c(Cl)c4)CC3)nc2n1
1.40
O=C(c1nccs1)N1CCN(C2CN(C(=O)c3cccc4nc(-c5ccco5)[nH]c34)C2)CC1
2.85
COc1cccc(C(c2ccccc2)C2CCN(C(=O)N3CC[C@@H]4OCC(=O)N[C@@H]4C3)CC2)c1 (single isomer, unassigned)
-0.70

Input line: Observed log10 IC50 on MAGL (Homo sapiens, UniProt Q99685) for COc1cccc(C(=O)N2CCN3C[C@@H](c4cncc(Cl)c4)OC[C@@H]3C2)c1Cl (racemic) , please.
Output line: 2.74

Input line: Observed log10 IC50 on MAGL (Homo sapiens, UniProt Q99685) for Cc1ccc2oc(N3CCN(C(=O)c4ccc(-c5nc(C(C)(C)C)nn5C)cc4)CC3)nc2n1 , please.
Output line: 2.36

Input line: Observed log10 IC50 on MAGL (Homo sapiens, UniProt Q99685) for COc1cccc(C(=O)N2CCN3C[C@@](O)(c4nc5ccccc5[nH]4)OC[C@@H]3C2)c1Cl (single isomer, unassigned) , please.
Output line: 2.98

Input line: Observed log10 IC50 on MAGL (Homo sapiens, UniProt Q99685) for CC(C)(C)OC(=O)NCCOCCOCCOCCC(=O)NCCOc1cccc(C(c2ccccc2)C2CCN(C(=O)N3CC[C@@H]4OCC(=O)N[C@@H]4C3)CC2)c1 (single isomer, unassigned) , please.
Output line: 0.30

Input line: Observed log10 IC50 on MAGL (Homo sapiens, UniProt Q99685) for O=C1N[C@H](CCC(=O)N2CC(OCc3cccc(S(=O)(=O)C(F)(F)F)c3)C2)CO1 , please.
Output line: 1.43

Input line: Observed log10 IC50 on MAGL (Homo sapiens, UniProt Q99685) for O=C(c1ccc(-c2nc(-c3ccccc3)c(-c3ccccc3)[nH]2)cc1)N1CC(N2CCN(C(=O)c3nccs3)CC2)C1 , please.
Output line: 1.86

Input line: Observed log10 IC50 on MAGL (Homo sapiens, UniProt Q99685) for Cc1cccc(C)c1C#CC1CCN(C(=O)N2CC[C@@H]3OCC(=O)N[C@@H]3C2)CC1 , please.
Output line: 1.40

Input line: Observed log10 IC50 on MAGL (Homo sapiens, UniProt Q99685) for Cn1nc(-c2ccc(F)cc2)c2cc(C(=O)N3CC(N[C@H]4CCN(C(=O)c5cscn5)C4)C3)ccc21 , please.
Output line: 3.31

Input line: Observed log10 IC50 on MAGL (Homo sapiens, UniProt Q99685) for Cc1ccc2oc(N3CCN(C(=O)c4ccc(-c5nnc(C(C)(C)C)o5)c(Cl)c4)CC3)nc2n1 , please.
Output line: 1.53

====

Hi, quick share: literature pIC50 data for MAGL (Homo sapiens, UniProt Q99685), several sources combined.
The quantity pIC50 is defined as the negative base-10 logarithm of the molar concentration.

Guide cases for pIC50, answers given:
CC(C)(C)Cn1nnc(-c2ccc(C(=O)N3CCN(c4nc5nc(Cl)ccc5o4)CC3)cc2)n1
8.52
O=C1CCC(CCC(=O)N2CC(c3ccc(-c4ccc(F)cc4F)cc3)C2)N1 (single isomer, unassigned; (-))
6.26
O=C1CO[C@H]2CCN(C(=O)N3CC(c4ccc(O)c(Cl)c4)C3)C[C@H]2N1
6.73
O=C1CO[C@H]2CCN(C(=O)N3CC4CC(OCc5ccc(C(F)(F)F)cc5F)CC4C3)C[C@H]2N1 (stereo partly drawn)
7.07
O=C1CO[C@H]2CCN(C(=O)N3CCC(N4Cc5cccc(Cl)c5C4)CC3)C[C@H]2N1
6.84

Input line: Observed pIC50 on MAGL (Homo sapiens, UniProt Q99685) for O=C1CO[C@H]2CCN(C(=O)N3CC(COc4ccc(C(F)(F)F)c(F)n4)C3)C[C@H]2N1 , please.
Output line: 7.12

Input line: Observed pIC50 on MAGL (Homo sapiens, UniProt Q99685) for CC(C)(C)COc1ccc(C2CN(C(=O)N3CC[C@@H]4OCC(=O)N[C@@H]4C3)C2)cc1 , please.
Output line: 10.00

Input line: Observed pIC50 on MAGL (Homo sapiens, UniProt Q99685) for CN(c1ccccc1)S(=O)(=O)c1ccc(C(=O)N2CC(N3CCN(C(=O)c4nccs4)CC3)C2)cc1 , please.
Output line: 6.00

Input line: Observed pIC50 on MAGL (Homo sapiens, UniProt Q99685) for COc1cccc(C(=O)N2CCN3C[C@@](O)(c4nc5ccccc5s4)OC[C@@H]3C2)c1Cl , please.
Output line: 6.42

Input line: Observed pIC50 on MAGL (Homo sapiens, UniProt Q99685) for O=C(c1cccc(-c2ccc(C(F)(F)F)cc2)c1)N1CC(N2CCN(C(=O)c3nccs3)CC2)C1 , please.
Output line: 7.11

Input line: Observed pIC50 on MAGL (Homo sapiens, UniProt Q99685) for O=C(c1cccc(N2CC(O)C2)c1Cl)N1CCN2C[C@@](O)(c3ccc(C(F)(F)F)cn3)CC[C@@H]2C1 , please.
Output line: 7.14

Input line: Observed pIC50 on MAGL (Homo sapiens, UniProt Q99685) for O=C(c1ccc2nc(-c3ccccc3)oc2c1)N1CC(N2CCN(c3nccs3)C(=O)C2)C1 , please.
Output line: 7.17

====

Hi, quick share: literature log10(IC50) data for MAGL (Homo sapiens), several sources combined.
Hello, just confirming the data are log10 of IC50 with units of µM.

Guide cases for log10(IC50), answers given:
O=C(c1nn(-c2ccc(Cl)cc2Cl)c2c1CCCC2)N1CC(N2CCN(C(=O)C(F)(F)F)CC2)C1
1.16
Cc1nn(-c2ccc(Cl)cc2)nc1C(=O)N1CC(N2CCN(C(=O)c3nccs3)CC2)C1
-0.65
O=C(c1ccc2c(ccn2-c2ccc(F)cc2)n1)N1CC(N2CCN(C(=O)c3nccs3)CC2)C1
-1.41
CC1(C#Cc2ccc(F)cc2Cl)CCN(C(=O)N2CC[C@@H]3OCC(=O)N[C@@H]3C2)CC1
-0.64

Input line: Observed log10(IC50) on MAGL (Homo sapiens) for Cn1cc(-c2ccccc2)c2ccc(C(=O)N3CC(N[C@H]4CCN(C(=O)c5ccccc5)C4)C3)cc21 , please.
Output line: -1.15

Input line: Observed log10(IC50) on MAGL (Homo sapiens) for O=C(c1ccc2c(-c3cccc(C(F)(F)F)c3)c[nH]c2c1)N1CC(N[C@H]2CCN(C(=O)c3nccs3)C2)C1 , please.
Output line: -1.74

Input line: Observed log10(IC50) on MAGL (Homo sapiens) for O=C(c1cscn1)N1CC[C@H](NC2CN(C(=O)c3cccc4c3CCN4c3ccc(F)cc3)C2)C1 , please.
Output line: -0.14

====

Hi, quick share: literature IC50 data for MAGL (Homo sapiens), several sources combined.
Output spec: scalar in nM, unitless text.

Guide cases for IC50, answers given:
O=C(c1ccc(-c2ccccc2)cc1)N1CCN(C2CN(C(=O)c3ncco3)C2)CC1
2170
Cc1cc(C(=O)N2CCN(c3nc4nc(Cl)ccc4o3)CC2)cnc1OCCC(F)(F)F
135
O=C(c1ccc(Oc2cccc(Cl)c2)c(F)c1)N1CC(N2CCN(C(=O)c3cscn3)CC2)C1
11

Input line: Observed IC50 on MAGL (Homo sapiens) for O=C1CO[C@H]2CCN(C(=O)N3CC(Oc4ccc(C(F)(F)F)c(Cl)c4)C3)C[C@H]2N1 , please.
Output line: 48

Input line: Observed IC50 on MAGL (Homo sapiens) for O=C1CO[C@H]2CCN(C(=O)N3CC(CNC(c4cccc(C(F)(F)F)c4)C(F)(F)F)C3)C[C@H]2N1 (stereo partly drawn) , please.
Output line: 18

Input line: Observed IC50 on MAGL (Homo sapiens) for COc1cccc(C(=O)N2CCN3C[C@@](O)(C4CCCC4)CC[C@@H]3C2)c1Cl (racemic) , please.
Output line: 548

Input line: Observed IC50 on MAGL (Homo sapiens) for N#Cc1cccc(Cl)c1-c1ccc(C2CN(C(=O)N3CC[C@@H]4OCC(=O)N[C@@H]4C3)C2)cc1 , please.
Output line: 0.1

Input line: Observed IC50 on MAGL (Homo sapiens) for O=C(c1ccccc1)N1CCN(C2CN(C(=O)c3ccc(-c4ccccc4)cc3)C2)CC1 , please.
Output line: 523

Input line: Observed IC50 on MAGL (Homo sapiens) for O=C(c1cccc(-c2c[nH]nc2F)c1)N1CCN2C[C@@](O)(c3ccc(C(F)(F)F)nc3)OC[C@@H]2C1 , please.
Output line: 80.4
